# experiment: Pharmacokinetics of anti-FRα antibodies in wild-type SCID mice
# Assay type: in vivo, mouse
# test conditions: 5 mg/kg iv bolus, total antibody
# Procedure: Pharmacokinetic parameters were determined using Phoenix 64 software (Certara). Plasma antibody concentrations were determined by the universal ELISA IgG assay.
measured quantity: Cmax (µg/mL)
Give bare numbers, in µg/mL.

Which measured Cmax value corresponds to AB1370083: anti-FRα fully human IgG1 antibody; VH SEQ ID NO: 43, VL SEQ ID NO: 44 (antibody, V domains shown) VH: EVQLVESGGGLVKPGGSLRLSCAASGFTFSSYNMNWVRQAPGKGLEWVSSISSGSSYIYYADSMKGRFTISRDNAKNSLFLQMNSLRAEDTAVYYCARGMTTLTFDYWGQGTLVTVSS VL: DIQMTQSPSSLSASVGDRVTITCRASQGISTFLAWFQQKPGKAPKSLIYAASSLQSGVPSKFSGSGSETDFTLTISSLQPEDFATYYCQQYISYPLTFGGGTKVEIK ?
86.0
